- ASSAY_PROCEDURE: AUC (0 to 24 hrs) in fasting human interstitial-space fluid of skeletal muscle at 250 mg, po
- Assay type: ADME, organism-based, Muscle tissue
- Parameters: time < 24 hr, dose 250 mg, route oral
PROPERTY: AUC(0-t) at 24 h (ng·h/mL)
Note: unit ng·h/mL is implicit; provide only the numeric part.

compound CC[C@H]1OC(=O)[C@H](C)[C@@H](O[C@H]2C[C@@](C)(OC)[C@@H](O)[C@H](C)O2)[C@H](C)[C@@H](O[C@@H]2O[C@H](C)C[C@H](N(C)C)[C@H]2O)[C@](C)(OC)C[C@@H](C)C(=O)[C@H](C)[C@@H](O)[C@]1(C)O , AUC(0-t) at 24 h observed: 480
